Tested on: cellular H3K36me2 level in multiple myeloma cell line KMS11 (t(4;14)+)
MEASUREMENT NOTES: H3K36me2 cellular ELISA assay in KMS11-Par line
Assay type: cell-based
CONDITION SUMMARY: Homo sapiens, KMS-11; KMS11-Par line, ELISA, 72 hours; read-out: H3K36me2 ELISA in KMS11-Par
As shown below, each of these compounds has a reported IC50 value.
ENDPOINT LABEL: IC50

In [3]: df
Out[3]:
                                    compound  endpoint_label  readout_value
 0  C[C@@H](F)c1cccc([C@@]2(N)CCCN(c3cnc(-c4ccc(F)cc4)cc3Cn3cnc4c(N)ncnc43)C2)n1            IC50       0.289 µM
 1  COc1cc(F)ccc1-c1cc(Cn2cnc3c(N)ncnc32)c(N2CCC[C@](N)([C@@H](O)C(F)F)C2)cn1            IC50        10.6 µM
 2  CC(C)n1ccc([C@@]2(N)CCCN(c3cnc(-c4ccc(F)cc4)cc3Cn3cnc4c(N)ncnc43)C2)n1            IC50        5.54 µM
 3  COc1cnc(-c2cc(Cn3cnc4c(N)ncnc43)c(N3CCC[C@](N)(c4cccc(Cl)n4)C3)cn2)cc1F            IC50        2.44 µM
 4  COc1ccc(-c2cc(Cn3cnc4c(N)ncnc43)c(N3CCC[C@](N)([C@@H](O)C(F)F)C3)cn2)c(Cl)c1            IC50        2.99 µM
 5  CC(O)c1ccc([C@@]2(N)CCCN(c3cnc(-c4ccc(F)c(F)c4)cc3Cn3cnc4c(N)ncnc43)C2)nc1Cl (some centres unmarked)            IC50        5.99 µM
 6  COc1ccc(-c2cc(Cn3cnc4c(N)ncnc43)c(N3CCCC(N)(C(C)F)C3)cn2)cc1F (centres unmarked)            IC50        1.86 µM
 7  Nc1ncnc2c1ncn2Cc1cc(-c2ccc(F)c(F)c2)ncc1N1CCC[C@](N)([C@@H]2COCCO2)C1            IC50        2.67 µM
 8  CCc1nccc([C@@]2(N)CCCN(c3cnc(-c4ccc(F)c(F)c4)cc3Cn3cnc4c(N)ncnc43)C2)n1            IC50        1.52 µM
 9  Nc1ncnc2c1ncn2Cc1cc(-c2ccc(F)c(F)c2)ncc1N1CCC[C@](N)(c2ncccc2F)C1            IC50       0.846 µM
10  COc1ncc(-c2cc(Cn3cnc4c(N)ncnc43)c(N3CCC[C@](N)(c4cccc(Cl)n4)C3)cn2)cc1F            IC50        7.44 µM
11  COc1c(F)cc(-c2cc(Cn3cnc4c(N)ncnc43)c(N3CCC[C@](N)(c4cccc(Cl)n4)C3)cn2)cc1F            IC50         1.1 µM
12  Nc1ncnc2c1ncn2Cc1cc(-c2ccc(F)cc2F)ncc1N1CCC[C@](N)(c2cccc(Cl)n2)C1            IC50        1.34 µM
13  Nc1ncnc2c1ncn2Cc1cc(-c2ccc(F)c(Cl)n2)ncc1N1CCC[C@](N)(c2cccc(Cl)n2)C1            IC50        4.56 µM
